Item-by-item account of RGA IC50
Target: T1, human ST2L, full length, on cells (human, UniProt Q01638 19-556)
T1 sequence: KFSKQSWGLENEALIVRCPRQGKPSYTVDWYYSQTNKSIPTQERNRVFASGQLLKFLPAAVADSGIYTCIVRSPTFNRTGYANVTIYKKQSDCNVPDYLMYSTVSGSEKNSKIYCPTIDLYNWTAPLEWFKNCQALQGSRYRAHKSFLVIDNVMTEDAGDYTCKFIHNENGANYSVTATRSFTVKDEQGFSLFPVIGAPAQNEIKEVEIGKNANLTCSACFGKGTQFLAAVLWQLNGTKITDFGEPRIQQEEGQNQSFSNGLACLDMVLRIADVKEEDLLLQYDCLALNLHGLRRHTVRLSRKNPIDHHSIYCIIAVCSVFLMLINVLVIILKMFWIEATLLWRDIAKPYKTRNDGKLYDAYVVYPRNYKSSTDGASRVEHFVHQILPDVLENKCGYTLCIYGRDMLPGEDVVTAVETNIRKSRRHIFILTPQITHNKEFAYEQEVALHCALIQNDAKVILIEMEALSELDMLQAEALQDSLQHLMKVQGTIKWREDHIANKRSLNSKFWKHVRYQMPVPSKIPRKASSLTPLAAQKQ
Experiment: cell-based or functional assay
Numeric only. Scale: µg/mL

Binder	RGA IC50, µg/mL
STLM210 (antibody, V domains shown, frameworks VH3-23 / Vk-L6) VH: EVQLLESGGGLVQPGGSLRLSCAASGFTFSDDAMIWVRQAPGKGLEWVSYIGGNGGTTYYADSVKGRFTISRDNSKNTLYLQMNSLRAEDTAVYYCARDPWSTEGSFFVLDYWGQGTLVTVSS VL: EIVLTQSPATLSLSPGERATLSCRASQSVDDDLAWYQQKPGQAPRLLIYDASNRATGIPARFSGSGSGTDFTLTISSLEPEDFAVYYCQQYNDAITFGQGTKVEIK	2.1

Field RGA IC50 (entry STLM221 (antibody, V domains shown, frameworks VH3-23 / Vk-L6) VH: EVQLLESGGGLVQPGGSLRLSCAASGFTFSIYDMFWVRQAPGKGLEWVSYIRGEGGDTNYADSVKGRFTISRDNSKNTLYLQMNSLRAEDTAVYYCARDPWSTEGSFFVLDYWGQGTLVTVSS VL: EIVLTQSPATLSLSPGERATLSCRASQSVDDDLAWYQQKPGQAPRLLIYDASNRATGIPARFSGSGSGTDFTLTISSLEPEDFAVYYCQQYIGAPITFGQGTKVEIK ) reads 2.79

Hey, just so you know, these numbers are from patent US20170066831A1.
